Value source: paper PMC5854716

- Tested on: human lung carcinoma A549 cells
- Assay details: In vitro antiproliferative assay (SRB), A549
- Format: cell-based
- Conditions used: 72 h exposure, mean ± SD
Experimental endpoint: IC50 A549

N.N.[Cl][Pt][Cl] [cis-platin, reference compound] ... 2.69 ± 1.119 µg/mL

###

- Tested on: Toxoplasma gondii BK strain
- Assay details: T. gondii tachyzoite intracellular proliferation in VERO host cells ([3H]uracil incorporation)
- Type: cell-based
- Conditions used: Toxoplasma gondii; 1.8 µg/ml, VERO host cells
- Source text: […] Tachyzoites of T. gondii, BK strain, were maintained in female C57BL/6 (H-2^b) and BALB/c (H-2^d) mice (with genetically determined high and low susceptibility, respectively to Toxoplasma infection) via serial intraperitoneal inoculation of 10^5–10^6 parasites per mouse in phosphate-buffered saline (PBS). […] The final pellet was resuspended in IMDM, quantified in a Burker’s chamber, and used in experimental assays. […]
Experimental endpoint: activity at 1.8 µg/mL (%)

C/C(=N\Nc1nc(-c2ccc([N+](=O)[O-])cc2)cs1)c1ccc(Nc2nc(N)nc(N)n2)cc1 [Compound 4h] ... 105
C/C(=N\Nc1nc(-c2ccc(Cl)cc2)cs1)c1ccc(Nc2nc(N)nc(N)n2)cc1 [Compound 4b] ... 106
C/C(=N\Nc1nc(-c2ccccc2)cs1)c1ccc(Nc2nc(N)nc(N)n2)cc1 [Compound 4k] ... 100
C/C(=N\NC(N)=S)c1ccc(Nc2nc(N)nc(N)n2)cc1 [Compound 3] ... 107
C/C(=N\Nc1nc(-c2ccc(F)cc2)cs1)c1ccc(Nc2nc(N)nc(N)n2)cc1 [Compound 4a] ... 101
C/C(=N\Nc1nc(-c2ccc(Br)cc2)cs1)c1ccc(Nc2nc(N)nc(N)n2)cc1 [Compound 4d] ... 104
C/C(=N\Nc1nc(-c2ccc(Cl)c(Cl)c2)cs1)c1ccc(Nc2nc(N)nc(N)n2)cc1 [Compound 4i] ... 102
C/C(=N\Nc1nc(-c2ccc(C)cc2)cs1)c1ccc(Nc2nc(N)nc(N)n2)cc1 [Compound 4c] ... 102
C/C(=N\Nc1nc(-c2ccc(I)cc2)cs1)c1ccc(Nc2nc(N)nc(N)n2)cc1 [Compound 4e] ... 104

###

The reader will find reported Viability VERO values listed item by item below.
- Test system: VERO cells
- Assay details: Cell viability assay (MTT), VERO
- Format: cell-based, Cercopithecus aethiops
- Conditions used: 3.9 µg/ml, 24 h
Experimental endpoint: Viability VERO

C/C(=N\Nc1nc(-c2ccc3[nH]c(=O)oc3c2)cs1)c1ccc(Nc2nc(N)nc(N)n2)cc1 ... 95.16%
C/C(=N\Nc1nc(-c2ccc(NS(C)(=O)=O)cc2)cs1)c1ccc(Nc2nc(N)nc(N)n2)cc1 ... 93.62%
C/C(=N\Nc1nc(-c2cc3ccccc3oc2=O)cs1)c1ccc(Nc2nc(N)nc(N)n2)cc1 ... 104.30%
CC(=O)Nc1ccc(-c2csc(N/N=C(\C)c3ccc(Nc4nc(N)nc(N)n4)cc3)n2)cc1 ... 95.35%

###

- Assay details: Cell viability assay (MTT), L929
- Format: cell-based, Mus musculus
- Conditions used: mouse, L929 fibroblast cells, 7.8 µg/ml
Experimental endpoint: viability at 24 h, 7.8 µg/ml (%)

C/C(=N\Nc1nc(-c2ccc(I)cc2)cs1)c1ccc(Nc2nc(N)nc(N)n2)cc1 [Compound 4e] ... 88.8
C/C(=N\Nc1nc(-c2ccc(C)cc2)cs1)c1ccc(Nc2nc(N)nc(N)n2)cc1 [Compound 4c] ... 92.9
C/C(=N\Nc1nc(-c2ccc(Br)cc2)cs1)c1ccc(Nc2nc(N)nc(N)n2)cc1 [Compound 4d] ... 93.7
C/C(=N\Nc1nc(-c2ccc(Cl)c(Cl)c2)cs1)c1ccc(Nc2nc(N)nc(N)n2)cc1 [Compound 4i] ... 100
C/C(=N\Nc1nc(-c2ccc(Cl)cc2)cs1)c1ccc(Nc2nc(N)nc(N)n2)cc1 [Compound 4b] ... 99.4
C/C(=N\NC(N)=S)c1ccc(Nc2nc(N)nc(N)n2)cc1 [Compound 3] ... 106
C/C(=N\Nc1nc(-c2ccccc2)cs1)c1ccc(Nc2nc(N)nc(N)n2)cc1 [Compound 4k] ... 101
C/C(=N\Nc1nc(-c2ccc(F)cc2)cs1)c1ccc(Nc2nc(N)nc(N)n2)cc1 [Compound 4a] ... 99
C/C(=N\Nc1nc(-c2ccc([N+](=O)[O-])cc2)cs1)c1ccc(Nc2nc(N)nc(N)n2)cc1 [Compound 4h] ... 105
